Entries and their pIC50
system: human MIF (Homo sapiens)
Sequence (P14174 2-115 limits assumed): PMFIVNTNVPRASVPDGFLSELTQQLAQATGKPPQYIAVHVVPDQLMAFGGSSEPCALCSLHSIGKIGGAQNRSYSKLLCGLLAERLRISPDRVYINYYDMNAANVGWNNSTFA
Units for pIC50: none; it is -log10 of a concentration expressed in mol/L.

Req: Please look up its pIC50: O=C(O)C1=CC(=O)C(=O)C=C1 [Compound 14]
Resp: 5.40

Req: I am curious: what pIC50 value has been reported for CC(=O)Nc1ccc(O)cc1 [Compound 3, acetaminophen, reference compound] ?
Resp: 2.00

Req: # lookup: pIC50 of CC(=O)N=C1C=CC(=O)C(O)=C1 [Compound 6, N-acetyl-3-hydroxy-p-benzoquinone imine]
Resp: 6.15

Req: Would you mind telling me what pIC50 value was observed for O=C(O)/C=C/C1=CC(=O)C(=O)C=C1 [Compound 16] ?
Resp: 6.52
